System: Jurkat cells
Experiment: Sirolimus (rapamycin) dose response of FKBP13 constructs stably transduced into Jurkat cells, flow cytometry
Assay type: cell-based
Conditions: rapamycin; Table 14; read-out: Rapamycin EC90
measure: EC90
Could you give the number and then its unit, please?

Can you share its EC90? I mean this molecule: FKBP-091: FKBP13 DRD Q72R, Q84E, A117W, M54A; SEQ ID NO: 41 (protein, Description of sequence: FKBP13-AcGFP-mCherry Fusion; Construct Name: FKBP-091; FKBP13 DRD in Construct : FKBP13 (mutated to match FKBP12 active site Q72R Q84E A117W) (DRD - M54A)) HCPIKSRKGDVLHAHYTGKLEDGTEFDSSLPRNQPFVFSLGTGEVIKGWDQGLLGMCEGEKRKLVIPSELGYGERGWPPKIPGGATLVFEVELLKIER
398 nM

Please answer likewise for FKBP-185 (protein, Description of sequence: Construct Name: FKBP-185; Mutation(s): Q72R Q84E A117W V85R DRD M54A D50L T57I I136L) HCPIKSRKGAVLHAHYIGKLEDGTEFDSSLPRNQPFVFSLGTGERIKGWDQGLLGMCEGEKRKLVIPSELGYGERGWPPKIPGGATLVFEVELLKLER
5340 nM

These measurements were taken from patent US20250186614A1.
